Measured pIC50 values are reported for all entries that follow.
# testedTarget: USP7 (Homo sapiens (Human), UniProt Q93009)
# Sequence (Q93009 whole entry): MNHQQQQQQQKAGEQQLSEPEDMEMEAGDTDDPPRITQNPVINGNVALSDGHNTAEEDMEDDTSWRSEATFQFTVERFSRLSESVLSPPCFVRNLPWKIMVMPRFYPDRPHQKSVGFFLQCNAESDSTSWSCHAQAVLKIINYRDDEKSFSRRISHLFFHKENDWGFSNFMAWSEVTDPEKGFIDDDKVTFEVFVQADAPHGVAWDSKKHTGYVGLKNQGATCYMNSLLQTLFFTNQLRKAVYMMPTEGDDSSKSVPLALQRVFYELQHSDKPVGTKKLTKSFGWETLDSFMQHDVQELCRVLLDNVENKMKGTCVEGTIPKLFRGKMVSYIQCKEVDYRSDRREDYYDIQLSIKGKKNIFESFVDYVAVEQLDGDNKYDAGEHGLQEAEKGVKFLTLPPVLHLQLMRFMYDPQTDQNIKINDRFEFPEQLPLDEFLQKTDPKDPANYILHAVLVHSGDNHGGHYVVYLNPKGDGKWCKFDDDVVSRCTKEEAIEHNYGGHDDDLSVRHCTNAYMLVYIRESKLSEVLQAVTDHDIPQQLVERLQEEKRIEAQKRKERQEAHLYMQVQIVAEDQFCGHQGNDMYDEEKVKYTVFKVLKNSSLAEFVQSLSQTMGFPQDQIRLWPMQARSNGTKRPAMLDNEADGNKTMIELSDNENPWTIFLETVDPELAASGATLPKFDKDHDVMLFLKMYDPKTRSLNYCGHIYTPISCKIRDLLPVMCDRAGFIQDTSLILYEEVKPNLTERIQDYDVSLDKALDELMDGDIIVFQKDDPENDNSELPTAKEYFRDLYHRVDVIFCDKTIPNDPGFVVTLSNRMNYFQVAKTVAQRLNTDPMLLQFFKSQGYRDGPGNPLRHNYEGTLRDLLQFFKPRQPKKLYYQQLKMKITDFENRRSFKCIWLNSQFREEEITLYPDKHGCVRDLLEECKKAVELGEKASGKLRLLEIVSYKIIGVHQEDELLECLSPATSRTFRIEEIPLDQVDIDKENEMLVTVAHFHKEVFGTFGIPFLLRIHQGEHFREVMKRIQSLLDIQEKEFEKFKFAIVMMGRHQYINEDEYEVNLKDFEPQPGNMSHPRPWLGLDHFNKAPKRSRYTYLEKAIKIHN
# assayText: USP7 fluorescence polarisation (FP) biochemical assay, ubiquitin-Lys-TAMRA substrate
# testContext: Table 4, biochemical assay; average of at least duplicate experiments; read-out: USP7 IC50
pIC50: −log10 of the molar value.

// below: answered compounds
compound: O=C(CC(C1CC1)C1CC1)N1CCC(O)(Cn2cnc3c(nnn3-c3ccccc3)c2=O)CC1 [Example 187]
observedMeasurement: 6.00 to 6.60
//
compound: Cn1nc2c(=O)n(CC3(O)CCN(C(=O)c4cnco4)CC3)cnc2c1-c1ccccc1 [Example 192]
observedMeasurement: 3.70 to 6.00
//
compound: Cn1nc2c(=O)n(CC3(O)CCN(C(=O)C4(C)CC4)CC3)cnc2c1-c1ccccc1 [Example 191]
observedMeasurement: 3.70 to 6.00
//
compound: O=C(c1cnc(C2CC2)o1)N1CCC(O)(Cn2cnc3c(cc(Cl)n3-c3ccccc3)c2=O)CC1 [Example 215]
observedMeasurement: > 6.60
//
compound: C[C@H](CC(=O)N1CCC(O)(Cn2cnc(N(CCO)Cc3cccnc3)cc2=O)CC1)c1ccccc1 [Example 177]
observedMeasurement: 3.70 to 6.00
//
compound: Cn1nc2c(=O)n(CC3(O)CCN(C(=O)CCc4ccccc4)CC3)cnc2c1C(F)(F)F [Example 95]
observedMeasurement: 3.70 to 6.00

## Task Find the measured pIC50 of CC(C)c1cc(=O)n(CC2(O)CCN(C(=O)C[C@@H](C)c3ccccc3)CC2)cn1 [Example 81] with USP7 (Homo sapiens (Human), UniProt Q93009) as test system.
## Result 3.70 to 6.00

## Task Find the measured pIC50 of O=C(c1cnc(C2CC2)o1)N1CCC(O)(Cn2cnc3c(cc(I)n3-c3ccccc3)c2=O)CC1 [Example 224] with USP7 (Homo sapiens (Human), UniProt Q93009) as test system.
## Result > 6.60

## Task Find the measured pIC50 of C[C@H](CC(=O)N1CCC(O)(Cn2cnc(NC3CCCC[C@H]3N)cc2=O)CC1)c1ccccc1 (mixture of isomers) [Example 63] with USP7 (Homo sapiens (Human), UniProt Q93009) as test system.
## Result 6.00 to 6.60

## Task Find the measured pIC50 of CC(C)c1c2c(nn1C)C(=O)N(CC1(O)CCN(C(=O)C[C@@H](C)c3ccccc3)CC1)CN2 [Example 34] with USP7 (Homo sapiens (Human), UniProt Q93009) as test system.
## Result 3.70 to 6.00

## Task Find the measured pIC50 of C[C@H](CC(=O)N1CCC(O)(Cn2cnc3c(-c4cccc(C(=O)O)c4)n(C)nc3c2=O)CC1)c1ccccc1 [Example 244] with USP7 (Homo sapiens (Human), UniProt Q93009) as test system.
## Result 3.70 to 6.00

## Task Find the measured pIC50 of C[C@H](CC(=O)N1CCC(O)(Cn2cnc(N3CC(C(=O)NCC4CC4)C3)cc2=O)CC1)c1ccccc1 [Example 164] with USP7 (Homo sapiens (Human), UniProt Q93009) as test system.
## Result 3.70 to 6.00

## Task Find the measured pIC50 of C[C@H](CC(=O)N1CCC(O)(CN2C(=O)Cc3ccccc32)CC1)c1ccccc1 [Example 126] with USP7 (Homo sapiens (Human), UniProt Q93009) as test system.
## Result 3.70 to 6.00

## Task Find the measured pIC50 of C[C@H](CC(=O)N1CCC(O)(Cn2cnc(N3CCC[C@@H]3CO)cc2=O)CC1)c1ccccc1 [Example 140] with USP7 (Homo sapiens (Human), UniProt Q93009) as test system.
## Result 3.70 to 6.00

## Task Find the measured pIC50 of Cn1nc2c(=O)n(CC3(O)CCN(C(=O)CCc4ccccc4)CC3)cnc2c1C(F)(F)F [Example 39] with USP7 (Homo sapiens (Human), UniProt Q93009) as test system.
## Result 3.70 to 6.00

## Task Find the measured pIC50 of CC(=O)N(CCN1CCCC1)c1cc(=O)n(CC2(O)CCN(C(=O)C[C@@H](C)c3ccccc3)CC2)cn1 [Example 113, Formic Acid] with USP7 (Homo sapiens (Human), UniProt Q93009) as test system.
## Result 3.70 to 6.00

## Task Find the measured pIC50 of Cc1nc2c(=O)n(CC3(O)CCN(C(=O)C[C@@H](C)c4ccccc4)CC3)cnc2n1-c1ccc(CN)cc1 [Example 72] with USP7 (Homo sapiens (Human), UniProt Q93009) as test system.
## Result > 6.60

## Task Find the measured pIC50 of NCc1ccc(-n2c(Cl)cc3c(=O)n(CC4(O)CCN(C(=O)c5cnc(C6CC6)o5)CC4)cnc32)cc1 [Example 242] with USP7 (Homo sapiens (Human), UniProt Q93009) as test system.
## Result > 6.60

## Task Find the measured pIC50 of C[C@H]1CCN(CCNc2cc(=O)n(CC3(O)CCN(C(=O)C[C@@H](C)c4ccccc4)CC3)cn2)C1 [Example 71, Formic Acid] with USP7 (Homo sapiens (Human), UniProt Q93009) as test system.
## Result > 6.60

## Task Find the measured pIC50 of C[C@H](CC(=O)N1CCC(O)(Cn2cnc(N3CCN(C)CC3)cc2=O)CC1)c1ccccc1 [Example 8] with USP7 (Homo sapiens (Human), UniProt Q93009) as test system.
## Result 3.70 to 6.00

## Task Find the measured pIC50 of C[C@H](CC(=O)N1CCC(O)(Cn2cnc(NCCO)cc2=O)CC1)c1ccccc1 [Example 103] with USP7 (Homo sapiens (Human), UniProt Q93009) as test system.
## Result 3.70 to 6.00

## Task Find the measured pIC50 of C[C@H](CC(=O)N1CCC(O)(Cn2cnc(NC[C@@H](C)N3CCCC3)cc2=O)CC1)c1ccccc1 [Example 58] with USP7 (Homo sapiens (Human), UniProt Q93009) as test system.
## Result > 6.60
